assayed_system: wt human TYK2, catalytic site (Homo sapiens)
Construct: wt human TYK2, catalytic site
Sequence (P29597 897-1176 limits assumed): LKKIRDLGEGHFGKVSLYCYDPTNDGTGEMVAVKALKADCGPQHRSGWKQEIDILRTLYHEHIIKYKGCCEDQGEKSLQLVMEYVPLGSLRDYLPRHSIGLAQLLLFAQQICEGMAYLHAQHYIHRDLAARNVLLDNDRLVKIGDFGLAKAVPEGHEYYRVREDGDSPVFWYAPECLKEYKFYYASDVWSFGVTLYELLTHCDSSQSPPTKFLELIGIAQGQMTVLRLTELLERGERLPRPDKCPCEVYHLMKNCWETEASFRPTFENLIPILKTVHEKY
assay_protocol: HTRF KinEASE assay, TYK2
setup_conditions: 1 μM ATP; read-out: IC50, inhibitory activity toward TYK2
quantity_measured: IC50

Fc1cccc(Cl)c1C1=Nc2cn[nH]c2-c2[nH]ncc2N1 ... 10 to 100 nM

Data origin: patent US12384788B2
